Hi there, I'd appreciate the recorded inhibition for every entry that follows.
Assay: Chikungunya virus CPE inhibitors, dose response, cell-based, secondary assay, set 3 (AID 651934)
Details: Chikungunya virus infected cells, CPE inhibition; at 50 µM (top of the series)
Field format: number, assumed %, no unit text.

Which inhibition value belongs to `COc1ccc(Nc2nc(=O)c3cccnc3s2)cc1` ? -5.2

Suppose we examine the compound `CN1CCN(C)C(=Nc2cc(Cl)c(C#N)cc2C(=O)Nc2ccccc2)C1` ; what inhibition value has been reported? 2.9

What inhibition value was documented for this compound, `CCN1CCN(Cc2nc3ccc([N+](=O)[O-])cc3c(=O)n2-c2ccccc2F)CC1` ? -3.4

inhibition lookup needed for `CCN(CC)c1nc(=O)c2cccnc2s1` , thanks. -5.8

Param item = `CCN1CCN(Cc2nc3ccc(-c4nn[nH]n4)cc3c(=O)n2-c2ccccc2)CC1` ; retrieve measured inhibition. 0.6

What does the data say about its inhibition? Entry: `CN1CCN(C)C(=Nc2ccc(C#N)cc2C(=O)Nc2cccc(F)c2)C1` 3.5

What value of inhibition has been recorded for this entry: `O=C1CN(Cc2nc3ccc([N+](=O)[O-])cc3c(=O)n2-c2ccccc2F)CCN1` 1.2

Reported inhibition for `O=c1c2cc([N+](=O)[O-])ccc2nc(CN2CCCNCC2)n1-c1ccccc1` : what is it? 4.1

Need inhibition of `CN1CCN(C)C(=Nc2ccc(F)cc2C(=O)Nc2ccccc2)C1` , thanks. 2.2

Could you share which inhibition value was measured for `CCN1CCN(C)CC1=Nc1ccc([N+](=O)[O-])cc1C(=O)Nc1ccccc1` ? 1.7

// lookup inhibition for `CNCCN(C)Cc1nc2ccc(C#N)cc2c(=O)n1-c1ccccc1F` 6.3

What value of measured inhibition is listed for `CCN1CCN(Cc2nc3ccc([N+](=O)[O-])cc3c(=O)n2Cc2ccccc2)CC1` ? 5.3

For the compound `CNCCCN(C)Cc1nc2ccc([N+](=O)[O-])cc2c(=O)n1-c1ccccc1` , what inhibition is on record? 0.8

I would be grateful if you could share the reported inhibition for `O=c1nc(Nc2ccc(CCc3ccccc3)cc2)sc2ncccc12` . 44
